# Method: Measurement of log P values by HPLC on reversed phase columns (methods [a] pH 2.3, [b] pH 2.7, [c] pH 7.8)
# Format: physicochemical
# Condition: HPLC reversed phase, method [c] pH 7.8
Readout Type: logP

Here are 5 compounds together with their reported answers.
>  <Compound>
CC(C)Oc1ccc([C@H]2CCC[C@H]2NC(=O)c2ccccc2C(F)(F)F)cc1 (relative stereo)

>  <Result>
3.84^[c];

$$$$
>  <Compound>
O=C(N[C@@H]1CCC[C@@H]1c1ccc(C(F)(F)F)cc1)c1c(F)cccc1F (relative stereo)

>  <Result>
3.47^[c];

$$$$
>  <Compound>
CC(C)Oc1ccc([C@H]2CCC[C@H]2NC(=O)c2ccccc2Br)cc1 (relative stereo)

>  <Result>
3.74^[c];

$$$$
>  <Compound>
CN(C(=O)c1ccccc1C(F)(F)F)C1CCCC1c1ccc(C(F)(F)F)cc1 (stereo not drawn)

>  <Result>
4.40^[c];

$$$$
>  <Compound>
O=C(N[C@@H]1CCC[C@@H]1c1ccccc1F)c1ccccc1Cl (relative stereo)

>  <Result>
3.08^[c];

$$$$

Could you please provide reported logP for CC(C)Oc1ccc([C@H]2CCC[C@H]2NC(=O)c2ccccc2I)cc1 (relative stereo) ? Thanks!
3.89^[c];

Please look at this compound and report its logP: CC(C)Oc1ccc([C@H]2CCC[C@H]2NC(=O)c2cccnc2Cl)cc1 (relative stereo)
2.99^[c];

Supply recorded logP for O=C(N[C@@H]1CCC[C@@H]1c1ccc(C(F)(F)F)cc1)c1sccc1I (relative stereo) here.
4.16^[c];

Return reported logP. Input compound: O=C(N[C@@H]1C[C@@H]1c1ccc(Cl)cc1)c1ccccc1F (relative stereo)
2.75^[c];

Please list logP recorded for the compound Cc1nc(C(F)(F)F)c(C(=O)N[C@@H]2CCC[C@@H]2c2ccc(OC(C)C)cc2)s1 (relative stereo)
3.71^[c];

Name the recorded logP of the compound listed here: O=C(NC1CC1c1ccc(Cl)cc1)c1ccccc1Br (stereo not drawn) [Example 423]
3.07^[c];

* * *

Reported logP values follow for various compounds
# Method: Measurement of log P values by HPLC on reversed phase columns (methods [a] pH 2.3, [b] pH 2.7, [c] pH 7.8)
# Type: physicochemical
# Condition: method [b], HPLC reversed phase, pH 2.7

>  <Compound>
Cn1cc(C(=O)N(C2CC2)C2CCCCC2c2ccc(Cl)cc2Cl)c(C(F)F)n1 (centres unmarked)

>  <Result>
4.59^[b]

$$$$

Tell me measured logP for O=C(N[C@@H]1CC[C@H]1c1ccccc1Cl)c1ccccc1I (relative stereo) please.
3.46^[b]

Specify logP for Cn1nc(C(F)F)c(C(=O)N(C2CC2)C2CCCCC2(C)c2ccccc2)c1F (centres unmarked) and stop.
4.18^[b]

* * *

# Method: Measurement of log P values by HPLC on reversed phase columns (methods [a] pH 2.3, [b] pH 2.7, [c] pH 7.8)
# Assay type: physicochemical
# Condition: HPLC reversed phase, method [b] (pH 2.7)
Listing of entries alongside the reported logP.

>  <Molecule>
Cc1nc(C)c(C(=O)NC2CCCC2c2ccccc2C(F)(F)F)s1 (stereo not drawn)

>  <Readout Type>
logP

>  <Result>
2.97^[b]

$$$$
>  <Molecule>
CC(C)Oc1ccc([C@H]2CCC[C@H]2NC(=O)c2ccccn2)cc1 (relative stereo)

>  <Readout Type>
logP

>  <Result>
2.41^[b]

$$$$
>  <Molecule>
O=C(NC1CCC1c1ccccc1C(F)(F)F)c1ccccc1I (stereo not drawn) [Example 428]

>  <Readout Type>
logP

>  <Result>
3.42^[b]

$$$$
>  <Molecule>
Cc1nc(C)c(C(=O)NC2CCCCC2c2c(F)cccc2F)s1 (stereo not drawn)

>  <Readout Type>
logP

>  <Result>
3.16^[b]

$$$$
>  <Molecule>
O=C(NC1CCCC1c1ccccc1Cl)c1c(F)cccc1F (stereo not drawn)

>  <Readout Type>
logP

>  <Result>
3.18^[b]

$$$$

Quickly give me recorded logP for O=C(NC1CCC1c1ccc(F)cc1C(F)(F)F)c1ncccc1Cl (stereo not drawn) [Compound 479]
3.11^[b]

Supply logP value. Item: O=C(NC1CC1c1ccc(Cl)cc1)c1c(F)cccc1Cl (stereo not drawn)
2.83^[b]

Give the reported logP for this molecule. O=C(N[C@@H]1CC[C@H]1c1cccc(F)c1C(F)(F)F)c1ccccc1I (relative stereo)
3.68^[b]

Give logP for O=C(NC1CCCC1c1c(F)cccc1F)c1cccnc1Cl (stereo not drawn)
2.51^[b]
